// provenance: PubChem BioAssay AID1159580

- assay.comment: chemical genetic growth profiling, strain panel (AID 1159580);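 also: tested at 20 µM; growth read once vehicle control cultures reached saturation at 30 °C; 1 = growth at the plate median or of vehicle wells; lower values mean less growth of the strain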
- run.parameters: S. cerevisiae deletion strains, growth OD, locus YDR195W, strain ref2
Hit rate of the full screen: of about 5,500 compounds, about 2,000 (36%) were called active. Not shown: some 18% with an inconclusive outcome. Rule as the data show it: active = normalized growth mostly below about 0.91 (no sharp cut-off); inconclusive = no clear call, values can overlap the other calls; inactive = mostly above about 0.92. This is one part of the list.
Pick one and only one: active, inactive

compound	answer.label
O=C(NC(=O)c1c(F)cccc1F)Nc1ccc(Cl)cc1	inactive
C=CC(C1=CC(=O)C(OC)=CC1=O)c1ccc(OC)cc1 (centres undefined)	active
C=C[C@@H](C1=CC(=O)C(OC)=C(OC)C1=O)c1ccccc1	inactive
Oc1c(I)cc(I)c2cccnc12	active
C=CC(C1=CC(=O)C=CC1=O)c1ccccc1 (centres undefined)	inactive
CC(C)=CCC/C(C)=C/CC/C(C)=C/CC/C(C)=C/CC/C(C)=C/CC/C(C)=C/CC/C(C)=C/CC/C(C)=C/CC/C(C)=C/CO	inactive
C=CC(C1=CC(=O)C(OC)=CC1=O)c1ccc(O)cc1 (centres undefined)	inactive
CC1(C)C(C(Cl)Cl)C2(Cl)C(Cl)C(Cl)C1(Cl)C2(Cl)Cl (centres undefined)	inactive

Check the results log: what was the call for C=CC(C1=CC(=O)C(OC)=CC1=O)c1ccccc1 (centres undefined) ?
active

----------
- assay.comment: chemical genetic growth profiling, strain panel (AID 1159580);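 also: tested at 20 µM; growth read once vehicle control cultures reached saturation at 30 °C; 1 = growth at the plate median or of vehicle wells; lower values mean less growth of the strain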
- run.parameters: S. cerevisiae deletion strains, growth OD, locus YNL248C, strain rpa49, stronger effect = lower value
Hit rate of the full screen: of about 5,500 compounds, about 2,000 (36%) were called active. About 18% were inconclusive and are not listed. The list shows a part of the results.
I'd be grateful if you could share measured normalized growth for these entries.

Some solved cases for reference:
compound	measured.result
C=C(NC(=O)C(=C)NC(=O)c1csc(C2=NC3c4csc(n4)C4NC(=O)c5csc(n5)C(C(C)(O)C(C)O)NC(=O)C5CSC(=N5)C(=CC)NC(=O)C(C(C)O)NC(=O)c5csc(n5)C3(CC2)NC(=O)C(C)NC(=O)C(=C)NC(=O)C(C)NC(=O)C(C(C)CC)NC2C=Cc3c(C(C)O)cc(nc3C2O)C(=O)OC4C)n1)C(N)=O (configuration not stated)	0.994 (inactive)
O=C1C=CC2=C3c4cc(O)c(O)cc4CC3(O)COC2=C1O (configuration not stated)	1.03 (inactive)
O=C1C=CC2=C3c4cc(O)c(O)cc4C[C@@]3(O)COC2=C1	0.969 (inactive)
CO[C@H]1/C=C/O[C@@]2(C)Oc3c(C)c(O)c4c(O)c(c(/C=N/N5CCN(C)CC5)c(O)c4c3C2=O)NC(=O)/C(C)=C\C=C\C(C)[C@H](O)[C@@H](C)[C@@H](O)[C@@H](C)[C@@H](OC(C)=O)[C@@H]1C (some centres not stated)	1.02 (inactive)
C=C(CC)C(=O)c1ccc(OCC(=O)O)c(Cl)c1Cl	1.01 (inactive)
O=C1O[C@H](C(O)CO)C(O)=C1O (some centres not stated)	0.983 (inactive)

Check the records and state normalized growth for Nc1ncn([C@@H]2O[C@H](CO)[C@@H](O)[C@H]2O)c(=O)n1
0.951 (inactive)

----------
- assay.comment: chemical genetic growth profiling, strain panel (AID 1159580);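 also: tested at 20 µM; growth read once vehicle control cultures reached saturation at 30 °C; 1 = growth at the plate median or of vehicle wells; lower values mean less growth of the strain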
- run.parameters: S. cerevisiae deletion strains, growth OD, locus YDL185W, strain tfp1, stronger effect = lower value
Out of some 5,500 compounds screened, about 2,000 (36%) were called active. Not shown: some 18% with an inconclusive outcome. The list shows a part of the results.
I'd be grateful if you could share measured normalized growth for these entries.
Numbers only.

Some solved cases for reference:
compound	normalized growth
CO[C@H]1/C=C/O[C@@]2(C)Oc3c(C)c(O)c4c(O)c(c(/C=N/N5CCN(C)CC5)c(O)c4c3C2=O)NC(=O)/C(C)=C\C=C\C(C)[C@H](O)[C@@H](C)[C@@H](O)[C@@H](C)[C@@H](OC(C)=O)[C@@H]1C (stereo partly drawn)	1.01
CC(=O)O[C@H]1C[C@@H](OC(C)=O)C(C)(C)C2C[C@@H](OC(C)=O)[C@@]3(C)C4=CC(=O)O[C@@H](c5ccoc5)[C@]4(C)CCC3[C@]21C (stereo partly drawn)	1.01

Dear reader, for each entry below, please note its normalized growth.
1. CN1C(CC(=O)c2ccccc2)CCCC1CC(O)c1ccccc1 (stereo not drawn)
2. CN(C)CCOC(C)(c1ccccc1)c1ccccn1 (stereo not drawn)
3. Nc1ccc(S(=O)(=O)Nc2ccc(Cl)nn2)cc1

[0.992, 0.953, 1.01]

Dear reader, for each entry below, please note its normalized growth.
1. CC(=O)NCCCCCC(=O)O
2. CCCC(C)C1(CC)C(=O)NC(=O)NC1=O (stereo not drawn)
3. C=CC(C1=CC(=O)C=CC1=O)c1ccccc1 (stereo not drawn)

0.985
1.02
0.994
